- testedSystem: UniProt P11712
- Sequence (P11712 whole entry): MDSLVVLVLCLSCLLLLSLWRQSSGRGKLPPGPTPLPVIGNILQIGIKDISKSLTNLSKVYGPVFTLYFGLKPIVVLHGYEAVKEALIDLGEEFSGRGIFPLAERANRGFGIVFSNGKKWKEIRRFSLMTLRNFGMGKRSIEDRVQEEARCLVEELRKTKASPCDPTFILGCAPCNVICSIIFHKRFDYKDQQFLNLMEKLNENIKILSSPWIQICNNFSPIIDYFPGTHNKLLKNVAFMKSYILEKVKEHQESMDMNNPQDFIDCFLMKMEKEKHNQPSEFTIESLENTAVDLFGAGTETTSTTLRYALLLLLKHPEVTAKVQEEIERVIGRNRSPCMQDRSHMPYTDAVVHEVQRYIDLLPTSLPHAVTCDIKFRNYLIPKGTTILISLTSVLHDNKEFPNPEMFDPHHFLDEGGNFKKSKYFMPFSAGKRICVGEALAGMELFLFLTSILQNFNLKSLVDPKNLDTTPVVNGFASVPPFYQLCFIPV
experimentalReadout: pIC50
Field pIC50 (float): negative decimal logarithm of the concentration in molar.

Identify the measured pIC50 of `Cc1cc(-c2cnn3c(NC[C@H]4C[C@@](C)(O)C4)cc(Oc4cccnc4)nc23)ccc1C(=O)NC1CC1` for UniProt P11712.
4.89

---

- testedSystem: Cytochrome P450 3A4 (Homo sapiens)
- Sequence (P08684 whole entry): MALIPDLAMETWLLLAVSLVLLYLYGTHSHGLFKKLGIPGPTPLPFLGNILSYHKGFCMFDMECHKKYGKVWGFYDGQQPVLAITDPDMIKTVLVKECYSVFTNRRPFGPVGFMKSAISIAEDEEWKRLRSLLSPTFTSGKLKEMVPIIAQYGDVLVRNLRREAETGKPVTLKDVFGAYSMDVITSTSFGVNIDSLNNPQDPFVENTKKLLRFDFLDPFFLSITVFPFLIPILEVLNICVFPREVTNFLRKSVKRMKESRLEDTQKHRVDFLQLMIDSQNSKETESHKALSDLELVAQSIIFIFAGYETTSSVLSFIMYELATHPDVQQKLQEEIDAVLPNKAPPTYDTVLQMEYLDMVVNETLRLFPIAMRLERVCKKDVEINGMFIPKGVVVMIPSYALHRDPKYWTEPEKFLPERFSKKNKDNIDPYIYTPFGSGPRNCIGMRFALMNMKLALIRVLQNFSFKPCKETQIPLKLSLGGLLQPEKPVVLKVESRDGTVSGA
- protocolSummary: Inhibition of CYP3A4 (unknown origin) preincubated for 10 mins followed by addition of DBF as substrate measured after 10 mins in presence of NADP by fluorescence analysis
- Format: ADME
experimentalReadout: IC50 (µM)
Give the value in µM but do not write µM after it.

Report IC50 for `Cc1cc(-c2cnn3c(NC[C@H]4C[C@@](C)(O)C4)cc(Oc4cccnc4)nc23)ccc1C(=O)NC1CC1` please.
14

---

- protocolSummary: Dissociation constant, pKa of the compound
- Assay type: physicochemical
experimentalReadout: pKa
Field format: numeric only.

Example entries begin here.
[
  {
    "compound": "Cc1cc(-c2cnn3c(NCC4CCOCC4)cc(Oc4ccccc4)nc23)ccc1C(=O)NC1CC1",
    "recordedNumber": 3.4
  },
  {
    "compound": "Cc1cc(-c2cnn3c(NC[C@H]4C[C@@](C)(O)C4)cc(Oc4cccnc4)nc23)ccc1C(=O)NC1CC1 [LUVIXASERTIB]",
    "recordedNumber": 3.7
  },
  {
    "compound": "Cc1cc(-c2cnn3c(NC[C@H]4C[C@](C)(O)C4)cc(Oc4cccnc4)nc23)ccc1C(=O)NC1CC1",
    "recordedNumber": 3.7
  },
  {
    "compound": "Cc1cc(-c2cnn3c(NCC4CCOCC4)cc(NC4CCCC4)nc23)ccc1C(=O)NC1CC1",
    "recordedNumber": 3.2
  },
  {
    "compound": "Cc1cc(-c2cnn3c(NCC4CCOCC4)cc(N[C@H]4CCC[C@H]4O)nc23)ccc1C(=O)NC1CC1",
    "recordedNumber": 3.2
  },
  {
    "compound": "Cc1cc(-c2cnn3c(NCCN4CCOCC4)cc(Oc4cccc(F)c4)nc23)ccc1C(=O)NC1CC1",
    "recordedNumber": 6.7
  },
  {
    "compound": "Cc1cc(-c2cnn3c(NC[C@H]4CC[C@@H](O)CC4)cc(Oc4cccnc4)nc23)ccc1C(=O)NC1CC1",
    "recordedNumber": 3.7
  }
]

// below: pKa requested for another compound
Requested field: pKa. Item: `Cc1cc(-c2cnn3c(NCCN4CCOCC4)cc(Oc4ccccc4)nc23)ccc1C(=O)NC1CC1`
6.7

---

solubility reference
- protocolSummary: Solubility of the compound at pH 7.4
- Type: physicochemical
- experimentalConditions: buffer
The reply should contain only the number, in µg/mL.

Some solved entries appear below for comparison.
[
  {
    "compound": "Cc1cc(-c2cnn3c(NCC4CCOCC4)cc(NC4CCCC4)nc23)ccc1C(=O)NC1CC1",
    "experimentalReadout": "solubility",
    "recordedNumber": 3.1
  },
  {
    "compound": "Cc1cc(-c2cnn3c(NCC4CCOCC4)cc(N[C@@H](C4CC4)C(C)(C)O)nc23)ccc1C(=O)NC1CC1",
    "experimentalReadout": "solubility",
    "recordedNumber": 10
  }
]

Let us move to another entry and its solubility.
What value of solubility has been recorded for this entry: Cc1cc(-c2cnn3c(NCC4CC4)cc(NC4CCCC[C@H]4O)nc23)ccc1C(=O)NC1CC1 (single isomer, unassigned)
5.3

---

- protocolSummary: Clearance in beagle dog at 1 mg/kg, iv or 5 mg/kg, po by LC-MS/MS analysis
- Format: ADME, organism-based, Canis lupus familiaris
- experimentalConditions: in vivo
experimentalReadout: clearance
Your reply should be a number followed by the unit it is expressed in.

[
  {
    "molecule": "Cc1cc(-c2cnn3c(NCC4CC4)cc(NC4CCCC[C@H]4O)nc23)ccc1C(=O)NC1CC1 (single isomer, unassigned)",
    "clearance": "7.9 mL/min/kg"
  },
  {
    "molecule": "Cc1cc(-c2cnn3c(NCCN4CCOCC4)cc(Oc4cccc(F)c4)nc23)ccc1C(=O)NC1CC1",
    "clearance": "29 mL/min/kg"
  },
  {
    "molecule": "Cc1cc(-c2cnn3c(NCC4CCOCC4)cc(N[C@@H](C4CC4)C(C)(C)O)nc23)ccc1C(=O)NC1CC1",
    "clearance": "13 mL/min/kg"
  }
]

Now look at this entry.
Name the reported clearance value associated with the molecule Cc1cc(-c2cnn3c(NC[C@H]4C[C@@](C)(O)C4)cc(Oc4cccnc4)nc23)ccc1C(=O)NC1CC1 [LUVIXASERTIB]
4.9 mL/min/kg

---

- testedSystem: UniProtKB P33981
- Sequence (P33981 whole entry): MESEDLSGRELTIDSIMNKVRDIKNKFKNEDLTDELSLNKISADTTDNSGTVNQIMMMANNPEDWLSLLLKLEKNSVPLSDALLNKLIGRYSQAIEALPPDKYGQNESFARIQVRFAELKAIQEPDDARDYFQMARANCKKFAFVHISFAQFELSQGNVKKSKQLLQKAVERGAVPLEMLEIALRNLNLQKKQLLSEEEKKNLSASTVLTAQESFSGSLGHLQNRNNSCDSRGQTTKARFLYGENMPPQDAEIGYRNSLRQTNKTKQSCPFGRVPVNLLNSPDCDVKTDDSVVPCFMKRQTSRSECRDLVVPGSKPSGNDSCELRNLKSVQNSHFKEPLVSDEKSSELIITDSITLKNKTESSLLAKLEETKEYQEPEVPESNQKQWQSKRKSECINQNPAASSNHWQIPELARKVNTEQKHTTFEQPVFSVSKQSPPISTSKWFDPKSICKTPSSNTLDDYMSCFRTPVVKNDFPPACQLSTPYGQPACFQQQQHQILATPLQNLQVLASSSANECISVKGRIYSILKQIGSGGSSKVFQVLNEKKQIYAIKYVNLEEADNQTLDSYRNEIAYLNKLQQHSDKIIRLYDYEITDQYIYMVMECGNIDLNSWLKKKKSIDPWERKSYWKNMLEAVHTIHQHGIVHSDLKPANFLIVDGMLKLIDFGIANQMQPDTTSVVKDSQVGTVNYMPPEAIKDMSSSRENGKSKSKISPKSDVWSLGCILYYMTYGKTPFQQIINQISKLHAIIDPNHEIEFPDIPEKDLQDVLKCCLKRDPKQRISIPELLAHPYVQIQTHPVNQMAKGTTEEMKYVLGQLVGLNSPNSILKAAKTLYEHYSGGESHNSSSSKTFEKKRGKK
experimentalReadout: IC50 (nM)
Please reply with the bare figure in nM and do not write the unit itself.

Previously resolved entries follow.
[
  {
    "compound": "Cc1cc(-c2cnn3c(NC[C@H]4CC[C@H](O)CC4)cc(Oc4cccnc4)nc23)ccc1C(=O)NC1CC1",
    "testedSystem": "UniProtKB P33981",
    "recordedNumber": 2.8
  },
  {
    "compound": "Cc1cc(-c2cnn3c(NCCN4CCOCC4)cc(Oc4ccccc4)nc23)ccc1C(=O)NC1CC1",
    "testedSystem": "UniProtKB P33981",
    "recordedNumber": 3
  },
  {
    "compound": "Cc1cc(-c2cnn3c(NC[C@H]4CC[C@@H](O)CC4)cc(Oc4cccnc4)nc23)ccc1C(=O)NC1CC1",
    "testedSystem": "UniProtKB P33981",
    "recordedNumber": 1.8
  }
]

Which IC50 value is on record for Cc1cc(-c2cnn3c(NCC4CC4)cc(NC4CCCC[C@H]4O)nc23)ccc1C(=O)NC1CC1 (single isomer, unassigned) ?
2.2

Query: IC50; subject: `Cc1cc(-c2cnn3c(NCC4CCOCC4)cc(Oc4ccccc4)nc23)ccc1C(=O)NC1CC1`
2.5

Item `Cc1cc(-c2cnn3c(NC[C@H]4C[C@H](O)C4)cc(Oc4cccnc4)nc23)ccc1C(=O)NC1CC1` has what recorded IC50?
1.1

Which IC50 value belongs to `Cc1cc(-c2cnn3c(NCC4CCOCC4)cc(NC4CCCC4)nc23)ccc1C(=O)NC1CC1` ?
3.2

---

- protocolSummary: Solubility of the compound at pH 2
- Assay type: physicochemical
- experimentalConditions: buffer
Recorded solubility, one value per entry.
Just the number in µg/mL, nothing appended.

Past entries and their recorded results:
[
  {
    "querySmiles": "Cc1cc(-c2cnn3c(NCC4CCOCC4)cc(Oc4ccccc4)nc23)ccc1C(=O)NC1CC1",
    "experimentalReadout": "solubility",
    "recordedNumber": 12
  },
  {
    "querySmiles": "Cc1cc(-c2cnn3c(NC[C@H]4C[C@@](C)(O)C4)cc(NC4CCCC4)nc23)ccc1C(=O)NC1CC1",
    "experimentalReadout": "solubility",
    "recordedNumber": 110
  }
]

Proceed to the following item.
So what's the measured solubility for this one? `Cc1cc(-c2cnn3c(NC[C@H]4C[C@](C)(O)C4)cc(NC4CCCC4)nc23)ccc1C(=O)NC1CC1`
110
